Biological target: RORγ (Homo sapiens)
Construct: expressed in transfected cells; host or cells: 293FT cells (Invitrogen), expression vector pFN26A (Promega)
Sequence (P51449 269-508 limits assumed): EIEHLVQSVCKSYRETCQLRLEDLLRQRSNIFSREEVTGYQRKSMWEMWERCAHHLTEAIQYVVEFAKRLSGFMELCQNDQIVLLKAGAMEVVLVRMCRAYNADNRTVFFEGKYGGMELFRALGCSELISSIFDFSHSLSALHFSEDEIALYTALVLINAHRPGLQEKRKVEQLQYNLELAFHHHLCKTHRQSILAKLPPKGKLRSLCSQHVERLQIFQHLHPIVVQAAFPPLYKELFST
Assay: RORγ GAL4 reporter gene assay (luciferase readout)
Format: cell-based
Conditions: inhibition of RORγ (GAL4-RORγ-LBD) in 293FT cells, luciferase signal; read-out: mean pIC50 (converted)
reported.endpoint: IC50

compound: CCS(=O)(=O)c1ccc(CNC(=O)c2ccc(C(O)(CC(C)(C)C)C(F)(F)F)cc2)cc1 (stereo not shown)
reported.endpoint: IC50
endpoint.result: ≤ 1 µM
--
compound: O=C(NCc1ccc(S(=O)(=O)NC2CC2)cc1)c1ccc(C(O)(C(F)(F)F)C(F)(F)F)cc1
reported.endpoint: IC50
endpoint.result: ≤ 1 µM
--
compound: Cc1cc(C(O)(c2ccc(C(=O)NCc3ccc(S(=O)(=O)CC4CC4)cc3)cc2)C(C)(C)C)no1 (stereo not shown)
reported.endpoint: IC50
endpoint.result: ≤ 0.1 µM

We now examine a further compound.
The compound O=C(NCc1ccc(S(=O)(=O)CC2CC2)cc1)c1ccc(C(O)(c2ccccc2)C(F)(F)F)cc1 (stereo not shown) , when measured on RORγ (Homo sapiens), yielded IC50 of ≤ 1 µM

---

Target: RORγ (Homo sapiens, UniProt P51449)
Construct: expressed in transfected cells; host or cells: 293FT cells (Invitrogen), expression vector pFN26A (Promega)
Sequence (P51449 269-508 limits assumed): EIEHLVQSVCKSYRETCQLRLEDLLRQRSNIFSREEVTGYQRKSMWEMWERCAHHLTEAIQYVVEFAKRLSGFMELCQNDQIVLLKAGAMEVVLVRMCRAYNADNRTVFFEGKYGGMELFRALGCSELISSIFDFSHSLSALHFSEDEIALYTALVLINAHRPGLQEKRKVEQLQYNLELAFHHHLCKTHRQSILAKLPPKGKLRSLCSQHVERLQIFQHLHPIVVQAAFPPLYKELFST
Assay: RORγ GAL4 reporter gene assay (luciferase readout)
Type: cell-based
Conditions: inhibition of RORγ (GAL4-RORγ-LBD) in 293FT cells, luciferase signal; read-out: mean pIC50 (converted)
reported.endpoint: IC50

Please review the following examples before continuing.
compound: CCCC(O)(c1ccc(C(=O)NCc2ccc(S(=O)(=O)CC3CC3)cc2)cc1)C(F)(F)F (centres unmarked) [Example 6]
IC50: ≤ 100 nM
--
compound: O=C(NCc1ccc(S(=O)(=O)CC2CC2)cc1)c1ccc(C(O)(C2CC2)C(F)(F)F)cc1 (centres unmarked) [Example 11]
IC50: ≤ 100 nM
--
compound: COC(c1ccc(C(=O)NCc2ccc(S(=O)(=O)CC3CC3)cc2C)cc1)(C(F)(F)F)C(F)(F)F [Example 28]
IC50: ≤ 100 nM
--
compound: CCCCC(O)(c1ccc(C(=O)NCc2ccc(S(=O)(=O)NC3CC3)cc2)cc1)C(F)(F)F (centres unmarked) [Example 20]
IC50: ≤ 1000 nM
--
compound: CC(C)(O)c1ccc(C(=O)NCc2ccc(S(=O)(=O)CC3CC3)cc2)cc1 [Example 3]
IC50: > 10000 nM

Value of IC50 reported for the compound Cc1cc(C(O)(c2ccc(C(=O)NCc3ccc(S(=O)(=O)CC4CC4)cc3)cc2)C(C)C)no1 (centres unmarked) [Example 36] is ≤ 100 nM

Notebook: CC(C)OC(c1ccc(C(=O)NCc2ccc(S(=O)(=O)CC3CC3)cc2)cc1)(C(F)(F)F)C(F)(F)F [Example 26] , IC50 read as ≤ 100 nM

IC50 recorded for this compound, CC(C)C(O)(c1ccc(C(=O)NCc2ccc(S(=O)(=O)CC3CC3)cc2)cc1)C(F)(F)F (centres unmarked) [Example 10] , is ≤ 100 nM
